Test system: CP194
Assay: qHTS profiling for inhibitors of Plasmodium falciparum proliferation (AID 504749); further: nearly all actives have a fitted effect of over 60% in size
Details: P. falciparum in erythrocytes, SYBR Green DNA, 72 h; series mostly up to 28.7 µM
Results filed as inconclusive are left out. The source made the active and inactive calls. The call rests on the fitted dose curve; in most records, active means well fitted inhibition curve with a large enough effect; inconclusive means small, poorly fitted or top-dose-only effect; inactive means flat fitted curve, though single readings scatter.
Your reply should match one of these outcome classes. true for active, false for inactive

Answered cases to consult:
{"smi": "C#CCN[C@@H]1CCc2ccccc21", "group-label": "false"}
{"smi": "CCCc1nc(C)c2c(=O)[nH]c(-c3cc(S(=O)(=O)N4CCN(CC)CC4)ccc3OCC)nn12", "group-label": "false"}
{"smi": "CN(C)CCc1c[nH]c2ccc(CS(=O)(=O)N3CCCC3)cc12", "group-label": "false"}
{"smi": "CC(C)Cn1cnc2c(N)nc3ccccc3c21", "group-label": "false"}
{"smi": "O=c1cc(O)c(Cl)c[nH]1", "group-label": "false"}

What did this assay record as the result for CNC(=O)c1cc(Oc2ccc(NC(=O)Nc3ccc(Cl)c(C(F)(F)F)c3)cc2)ccn1 ? true

What did this assay record as the result for Cc1noc(NS(=O)(=O)c2ccc(N)cc2)c1C ? false

What did this assay record as the result for N=C(N)c1ccc(OCCCCCOc2ccc(C(=N)N)cc2)cc1 ? true

What did this assay record as the result for N[C@@H](Cc1ccc(O)c(O)c1)C(=O)O ? false

What did this assay record as the result for COc1ncnc(NS(=O)(=O)c2ccc(N)cc2)c1OC ? false

What did this assay record as the result for CCOC(=O)c1ccc(C#Cc2ccc3c(c2)C(C)(C)CCS3)nc1 ? false

What did this assay record as the result for CCOC(=O)c1ccc(OC(=O)CCCCCN=C(N)N)cc1 ? false
